Test system: Caco-2 cells
Procedure Details: Lactate dehydrogenase (LDH) cytotoxicity assay, Caco-2
Assay type: cell-based, human
Experimental Parameters: 100 µM, 24 h
Parameter cytotoxicity (LDH release): see the listing below.
Answer shape: numeric part, then the unit.

Molecule | cytotoxicity (LDH release)
CCc1ccccc1Nc1nc(-c2c(C)nc3ccccn23)cs1 | 2%
O=[N+]([O-])c1cccc(S(=O)(=O)Nc2ccc(Br)cc2)c1 | 27%
CS/C(N)=N/N=C/c1cc(C)ccc1O | 12%

# next molecule below
Value of measured cytotoxicity (LDH release) for the entry OCCC1CN(C2CCN(c3ccccc3)CC2)CCN1CCCc1ccccc1 (stereo not shown) : 27%
